TARGET UNDER TEST: TBP (TATA-binding protein, hTBP) (Homo sapiens, UniProt P20226 1-339)
Sequence (P20226 whole entry): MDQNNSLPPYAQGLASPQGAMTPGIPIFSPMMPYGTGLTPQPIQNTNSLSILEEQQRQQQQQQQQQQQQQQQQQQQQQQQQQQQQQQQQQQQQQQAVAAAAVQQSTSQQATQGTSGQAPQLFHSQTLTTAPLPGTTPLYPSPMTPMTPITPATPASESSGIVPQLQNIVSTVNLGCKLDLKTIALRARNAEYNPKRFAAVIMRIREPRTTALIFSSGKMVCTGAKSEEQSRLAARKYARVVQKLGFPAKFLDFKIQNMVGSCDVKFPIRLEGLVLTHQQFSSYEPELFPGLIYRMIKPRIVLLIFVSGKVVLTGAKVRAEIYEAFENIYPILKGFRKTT
EXPERIMENTAL PROTOCOL: EMSA; Fixed active TBP (typically 0.3 nM) titrated with 32P dsDNA to equilibrium; buffer, salt, pH and temperature not given in the material
DETAILS: protein: recombinant; label: 32P both strands; blunt

BINDER: HBB -29A>G (dsDNA) DNA 1: CAGGGCTGGGCATGAAAGTCAGGGCA DNA 2: TGCCCTGACTTTCATGCCCAGCCCTG
QUANTITY UNIT: nM
Kd: 390

BINDER: HBD -31A>G (dsDNA) DNA 1: ACAGGACCAGCGTAAAAGGCAGGGCA DNA 2: TGCCCTGCCTTTTACGCTGGTCCTGT
QUANTITY UNIT: nM
Kd: 120

BINDER: SOD1 -27A>G (dsDNA) DNA 1: AGGTCTGGCCTGTAAAGTAGTCGCGG DNA 2: CCGCGACTACTTTACAGGCCAGACCT
QUANTITY UNIT: nM
Kd: 170

BINDER: HBB -31A>G (dsDNA) DNA 1: CAGGGCTGGGCGTAAAAGTCAGGGCA DNA 2: TGCCCTGACTTTTACGCCCAGCCCTG
QUANTITY UNIT: nM
Kd: 99

BINDER: CYP2A6 -48T>G (dsDNA) DNA 1: TTTCAGGCAGTAGAAAGGCAAACCAC DNA 2: GTGGTTTGCCTTTCTACTGCCTGAAA
QUANTITY UNIT: nM
Kd: 80

BINDER: HBB TATA WT (dsDNA) DNA 1: CAGGGCTGGGCATAAAAGTCAGGGCA DNA 2: TGCCCTGACTTTTATGCCCAGCCCTG
QUANTITY UNIT: nM
Kd: 44
